target: Shiga toxin 2 (Escherichia coli O157:H7) (UniProt P09385+P09386)
assay-details: E. coli 0.157:H7 Shiga Toxin SOP - stx2 screening assay
Type: functional
Set-up: scale not given: direction of the effect not stated beside the values
experimental-context: 30 µM
Consider the following compounds; for each one, report its Percent Effect.
Give bare numbers, in %.

# compound, target, Percent Effect / %
records = [
    ("Cc1cc(C)c2cc(CNCc3ccccc3)c3nn(C)c(=O)n3c2c1", "Shiga toxin 2 (Escherichia coli O157:H7) (UniProt P09385+P09386)", -0.711),
    ("CNc1cc2c(nn1)CCN(C(=O)C1CCCc3ccccc31)C2 (stereo unspecified)", "Shiga toxin 2 (Escherichia coli O157:H7) (UniProt P09385+P09386)", 4.77),
    ("O=C(c1cc(Cl)cc(Cl)c1)N1CCN(c2nccs2)CC1", "Shiga toxin 2 (Escherichia coli O157:H7) (UniProt P09385+P09386)", -14.9),
    ("C[C@H]1C[C@@H]2CCN(Cc3ccccn3)C[C@H]2O1", "Shiga toxin 2 (Escherichia coli O157:H7) (UniProt P09385+P09386)", -4.58),
    ("CS(=O)(=O)N1CCC(c2nnc3ccc(C(=O)N4CCCC4)cn23)C1 (stereo unspecified)", "Shiga toxin 2 (Escherichia coli O157:H7) (UniProt P09385+P09386)", -10.4),
    ("CN1CCN(c2cc(CCNC(=O)C3CCC3)nc(C3CC3)n2)CC1", "Shiga toxin 2 (Escherichia coli O157:H7) (UniProt P09385+P09386)", -18.7),
    ("O=C(c1ccn(-c2cccc(Cl)c2)n1)N1CCN(C2CC2)CC1", "Shiga toxin 2 (Escherichia coli O157:H7) (UniProt P09385+P09386)", 20.3),
    ("COc1cccc(CC2CN(C3CCN(C(C)=O)CC3)CCO2)c1 (stereo unspecified)", "Shiga toxin 2 (Escherichia coli O157:H7) (UniProt P09385+P09386)", -26),
    ("CN(C(=O)Cn1nc(-c2cccs2)ccc1=O)C1CCS(=O)(=O)C1 (stereo unspecified)", "Shiga toxin 2 (Escherichia coli O157:H7) (UniProt P09385+P09386)", -35.1),
    ("COCCNC(=O)C[C@@H]1COC[C@H]2CN(C(=O)c3cnccn3)C[C@@H]12", "Shiga toxin 2 (Escherichia coli O157:H7) (UniProt P09385+P09386)", -20.7),
]

Which measured Percent Effect belongs to Cn1cccc1C(=O)N1CCC2(CC1)CN(c1cncnc1)C(=O)CO2 , tested on Shiga toxin 2 (Escherichia coli O157:H7) (UniProt P09385+P09386)? -1.71
